# Test system: WT Max(13-93) synthetic (M65Nle)
# assay notes: PBM 8-mer E-score (E-score (rank enrichment, -0.5 to 0.5)); higher = stronger preferential binding
Whole data set: some 33,000 sequences, median “E-score (rank enrichment, -0.5 to 0.5)” near -0.0075, cut for the highest 2% near 0.23. This is one part of a sample in which the highest values are shown more often than they occur.
measured metric: PBM 8-mer E-score
Answer as a number with no unit attached.

INSERT INTO assay_data (seq_text, measured_metric, measured) VALUES
  ('CTAAAGCA', 'PBM 8-mer E-score', 0.0761),
  ('AAATTCGG', 'PBM 8-mer E-score', 0.0747);

Value lookup for PBM 8-mer E-score; key = ATCAAACA
0.238

Input CAATAATG
0.0933

Input GTGGTTTA
0.179

Input AGTGCCTG
-0.101

Input AGCAGAAG
-0.0139
